assay: Metabolic stability in Wistar rat liver microsomes assessed as compound remaining at 1 uM after 10 mins by LC-MS/MS analysis relative to control; type: ADME, Microsome; conditions: read-out: Stability
Parameter: remaining at 10 min, 1 µM

Field remaining at 10 min, 1 µM (entry O=c1c(O)c(-c2cc(O)c(O)c(O)c2)oc2cc(O)cc(O)c12 ) reads 55.9%

Just so you know, measured remaining at 10 min, 1 µM for O=c1c(O[C@@H]2O[C@H](CO)[C@@H](O[C@@H]3O[C@H](CO)[C@H](O)[C@H](O)[C@H]3O)[C@H](O)[C@H]2O)c(-c2cc(O)c(O)c(O)c2)oc2cc([O-])cc(O)c12.[Na+] came out at 89.7%
